Biological target: RAB25 (Homo sapiens)
Construct: RAB25 (residues E7-Q180) was expressed with an N-terminal GST- and hexahistidine tag; made in house; host or cells: Escherichia coli BL21(DE3) pLysS
Sequence (P57735 7-180): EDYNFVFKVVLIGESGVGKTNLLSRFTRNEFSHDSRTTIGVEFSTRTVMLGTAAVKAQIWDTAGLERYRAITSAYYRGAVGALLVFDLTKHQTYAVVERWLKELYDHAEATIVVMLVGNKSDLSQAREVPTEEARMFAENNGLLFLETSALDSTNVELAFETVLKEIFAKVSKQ
Experiment: Fluorescence polarization binding of FITC-FIP/FITC-RFP peptides to RAB25
Conditions: FITC peptide 15 nM
metricName: binding affinity to RAB25

>  <substance>
FIP1: unmodified RAB family interacting protein 1 (class I) peptide (KKEFQVRELEDYIDNLLVRVMEETPNILRIPA) [reference compound]

>  <studySystem>
RAB25 (Homo sapiens)

>  <metricName>
binding affinity to RAB25

>  <testResult>
little or no binding

$$$$
>  <substance>
FIP2: unmodified RAB family interacting protein 2 peptide (ERDTHIRELEDYIDNLLVRVMEETPSILRVPY) [reference compound]

>  <studySystem>
RAB25 (Homo sapiens)

>  <metricName>
binding affinity to RAB25

>  <testResult>
little or no binding

$$$$

====

Molecular target: RAB11 (Homo sapiens, UniProt P62491)
Construct: RAB11 (residues 1-175) was expressed with an N-terminal GST-tag with an internal thrombin cleavage site; GST (thrombin cleavage site between tag and RAB11) (N); made in house; host or cells: Escherichia coli BL21(DE3) pLysS
Sequence (P62491 1-175): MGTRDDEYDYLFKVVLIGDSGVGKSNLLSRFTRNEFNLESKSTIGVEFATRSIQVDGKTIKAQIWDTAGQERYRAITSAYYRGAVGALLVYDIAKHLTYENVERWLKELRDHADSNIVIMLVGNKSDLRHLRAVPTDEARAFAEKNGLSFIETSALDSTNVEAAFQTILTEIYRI
Test: Fluorescence polarization binding of FITC-FIP/FITC-RFP peptides to RAB11
Conditions: FITC peptide 15 nM, fluorescence polarization

>  <substance>
FIP2: unmodified RAB family interacting protein 2 peptide (ERDTHIRELEDYIDNLLVRVMEETPSILRVPY) [reference compound]

>  <studySystem>
RAB11 (Homo sapiens, UniProt P62491)

>  <binding affinity to RAB11>
little or no binding

$$$$
>  <substance>
FIP1: unmodified RAB family interacting protein 1 (class I) peptide (KKEFQVRELEDYIDNLLVRVMEETPNILRIPA) [reference compound]

>  <studySystem>
RAB11 (Homo sapiens, UniProt P62491)

>  <binding affinity to RAB11>
little or no binding

$$$$
